experimentalTarget: T1, human Nectin-4 extracellular antigen hNectin-4-His (human, UniProt Q96NY8 32-349)
T1 construct: C-terminal 8xHis tag included
T1 sequence: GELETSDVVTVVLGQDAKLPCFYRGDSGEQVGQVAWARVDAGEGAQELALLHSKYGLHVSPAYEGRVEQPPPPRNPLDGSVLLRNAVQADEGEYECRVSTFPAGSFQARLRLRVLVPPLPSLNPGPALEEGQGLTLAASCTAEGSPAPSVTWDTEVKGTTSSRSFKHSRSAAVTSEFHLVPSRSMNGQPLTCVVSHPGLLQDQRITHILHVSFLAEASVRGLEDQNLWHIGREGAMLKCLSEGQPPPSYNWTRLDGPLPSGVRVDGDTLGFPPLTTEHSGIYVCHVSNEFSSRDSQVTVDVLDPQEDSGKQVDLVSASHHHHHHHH
testDetails: ELISA, phage scFv supernatant 1:50
readout: OD value (OD)
Answers are plain numbers, in OD.

Some binders with recorded OD value:
{"columns": ["binder", "OD value (OD)"],
 "data": [
  ["10F4-2C2 scFv (scFv, V domains shown, phage clone supernatant) VH: EVQLVESGGGLVQPGGSLRLSCAASGFNFSNYWMSWVRQAPGKGLEWVSVIDAHSANIRYADSVKGRFTISRDNSKNTLYLQMNSLRAEDTAVYYCAREYSDVVDYVSVRTPLDYWGQGTLVTVSS VL: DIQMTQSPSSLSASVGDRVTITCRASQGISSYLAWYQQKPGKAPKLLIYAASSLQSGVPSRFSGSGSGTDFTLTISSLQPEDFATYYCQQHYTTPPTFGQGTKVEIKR", 1.58],
  ["1F3-1E10 scFv (scFv, V domains shown, phage clone supernatant) VH: EVQLVESGGGLVQPGGSLRLSCAASGFNFSSYGMSWVRQAPGKGLEWVSRISPYTDNKYYADSVKGRFTISRDNSKNTLYLQMNSLRAEDTAVYYCARAELLAFDVYTASDYWGQGTLVTVSS VL: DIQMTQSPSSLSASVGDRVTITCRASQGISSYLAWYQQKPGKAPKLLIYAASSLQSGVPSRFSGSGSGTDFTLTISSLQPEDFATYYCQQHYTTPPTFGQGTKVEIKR", 1.54]
]}

Then this binder:
[ask] Consider the binder 1F3-2A12 scFv (scFv, V domains shown, phage clone supernatant) VH: EVQLVESGGGLVQPGGSLRLSCAASGYSFDSYGMSWVRQAPGKGLEWVSGIKPTGASTYYADSVKGRFTISRDNSKNTLYLQMNSLRAEDTAVYYCARAELLAFDVYTASDYWGQGTLVTVSS VL: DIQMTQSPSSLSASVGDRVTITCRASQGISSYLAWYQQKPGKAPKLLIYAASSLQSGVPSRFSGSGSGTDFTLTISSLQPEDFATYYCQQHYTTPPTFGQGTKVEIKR . State its measured OD value.
[reply] 1.65
